B1: library; numbered along this chain (parent)
chain: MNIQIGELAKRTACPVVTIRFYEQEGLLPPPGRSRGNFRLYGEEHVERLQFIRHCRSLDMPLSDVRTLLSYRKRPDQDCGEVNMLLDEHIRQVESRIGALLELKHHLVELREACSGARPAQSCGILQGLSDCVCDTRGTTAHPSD

Variants of: B1
Assay: sfGFP reporter fluorescence (15 h) (µM FITC); higher = higher leak
Conditions: library round: Round 0; ligand: none
Threshold check on sfGFP reporter fluorescence: at or above 0.06 gives true (1), strictly below gives false (0).

Consider the worked cases shown below.
P15G : true (1)
G6K : true (1)
L107S : true (1)
T12A : false (0)

stdin: Record "P143F" ; criterion: sfGFP reporter fluorescence no lower than 0.06. Met?
stdout: false (0)

stdin: Record "P30A" ; criterion: sfGFP reporter fluorescence no lower than 0.06. Met?
stdout: true (1)

stdin: Record "L8A" ; criterion: sfGFP reporter fluorescence no lower than 0.06. Met?
stdout: false (0)

stdin: Record "L110F" ; criterion: sfGFP reporter fluorescence no lower than 0.06. Met?
stdout: false (0)

stdin: Record "G128R" ; criterion: sfGFP reporter fluorescence no lower than 0.06. Met?
stdout: true (1)

stdin: Record "E112N" ; criterion: sfGFP reporter fluorescence no lower than 0.06. Met?
stdout: true (1)

stdin: Record "V82L" ; criterion: sfGFP reporter fluorescence no lower than 0.06. Met?
stdout: false (0)
